# melting point annotations

See these solved cases before continuing.
Q: Name the recorded melting point of the item "CCS(=O)(=O)Nc1ccc2[nH]cc(C3CCN(C)CC3)c2c1" in your answer.
Ans: 176 to 178 °C

Q: Name the recorded melting point of the item "CN1CCC(c2c[nH]c3ccc(C(=O)c4ccc(Cl)cc4)cc23)CC1" in your answer.
Ans: 133 °C

Q: Name the recorded melting point of the item Cl.Cn1cc(CCNC2CCc3[nH]c4ccc(O)cc4c3C2)cn1 (centres unmarked) in your answer.
Ans: 286 °C (dec.)

More entries:
Q: Name the recorded melting point of the item "CCN1CCC(c2c[nH]c3ccc(NC(=O)c4ccco4)cc23)CC1" in your answer.
Ans: 178 to 179 °C

Q: Name the recorded melting point of the item Br.C=C(C)C(=O)Nc1ccc2[nH]c3c(c2c1)CC(N(C)C)CC3 (centres unmarked) in your answer.
Ans: 236 to 238 °C

Q: Name the recorded melting point of the item "CN1CCC(c2c[nH]c3ccc(NC(=O)c4ccc(Cl)cc4)cc23)CC1.O=C(O)/C=C/C(=O)O" in your answer.
Ans: 163 °C (dec.)

Q: Name the recorded melting point of the item "CN1CCC(c2c[nH]c3ccc(NC(=O)c4cccc(Cl)c4)cc23)CC1.O=C(O)/C=C/C(=O)O" in your answer.
Ans: 185 °C (dec.)

* * *

# melting point annotations

Q: Name the recorded melting point of the item CC(=O)c1ccc2[nH]c3c(c2c1)CC(N(C)C)CC3 (stereo not shown) in your answer.
Ans: 181 to 182 °C

Q: Name the recorded melting point of the item Cl.O=C(Nc1ccc2[nH]c3c(c2c1)CC(NCCc1ccc(F)cc1)CC3)c1ccc(F)cc1 (stereo not shown) in your answer.
Ans: 210 to 211 °C

Q: Name the recorded melting point of the item "COc1cccc(C(=O)Nc2ccc3[nH]cc(C4CCN(C)CC4)c3c2)c1.O=C(O)/C=C/C(=O)O" in your answer.
Ans: 152 °C (dec.)

Q: Name the recorded melting point of the item "CCC(=O)Nc1ccc2[nH]cc(C3CCN(C)CC3)c2c1.O=C(O)/C=C/C(=O)O" in your answer.
Ans: 88 to 92 °C (dec.)

Q: Name the recorded melting point of the item Br.CN(C)C1CCc2[nH]c3ccc(NC(=O)C4CC4)cc3c2C1 (stereo not shown) in your answer.
Ans: 216 to 218 °C

* * *

# melting point annotations

See these solved cases before continuing.
Q: Name the recorded melting point of the item "CCCCN1CC=C(c2c[nH]c3ccc(NS(C)(=O)=O)cc23)CC1" in your answer.
Ans: 202 to 204 °C

Q: Name the recorded melting point of the item "CN1CCC(c2c[nH]c3ccc(SCc4ccccc4)cc23)CC1" in your answer.
Ans: 138 to 141 °C

More entries:
Q: Name the recorded melting point of the item "CN1CCC(c2c[nH]c3ccc(C(=O)c4ccc(OC(F)(F)F)cc4)cc23)CC1" in your answer.
Ans: 172 to 175 °C

Q: Name the recorded melting point of the item "CN1CCC(c2c[nH]c3ccc(NC(=O)c4ccccc4Cl)cc23)CC1.O=C(O)/C=C/C(=O)O" in your answer.
Ans: 209 °C (dec.)

Q: Name the recorded melting point of the item Cl.Oc1ccc2[nH]c3c(c2c1)CC(NCCc1ccc(F)cc1)CC3 (centres unmarked) in your answer.
Ans: 160 °C (dec.)
